test system: SEM cells; experiment: cell viability relative to DMSO control; higher = less cytotoxic; settings: RPMI 5 mM glucose + 10% FBS; 48 h; 1.71 µM
Each entry below carries its recorded cell viability.
Measure: cell viability (%)

1. N[C@@H](CC(=O)N1CCn2c(nnc2C(F)(F)F)C1)Cc1cc(F)c(F)cc1F | 112
2. Cc1cc(O)c2c(c1)C(=O)c1cc(O)cc(O)c1C2=O | 102
3. CC(C)(C)NC(=O)[C@@H]1CN(Cc2cccnc2)CCN1C[C@@H](O)C[C@@H](Cc1ccccc1)C(=O)N[C@H]1c2ccccc2C[C@H]1O.O=S(=O)(O)O | 122
4. O=C(NNC(=O)c1ccc(CN[S+](=O)([O-])c2ccc(F)c(Cl)c2)cc1)c1ccccc1 | 105
5. COC[C@H]1OC(=O)C2=COC3=C2[C@@]1(C)\C4=C(\[C@@H]5CC[C@H](O)[C@@]5(C)C[C@H]4OC(C)=O)C3=O | 77.3
6. NCC(=O)Nc1ccc(-n2nc(C(F)(F)F)cc2-c2ccc3c(ccc4ccccc43)c2)cc1 | 107
7. Cc1[nH]c(/C=C2\C(=O)Nc3ccc([S+](=O)([O-])Cc4c(Cl)cccc4Cl)cc32)c(C)c1C(=O)N1CCC[C@@H]1CN1CCCC1 | 101
8. OCCCNc1cc(-c2ccnc(Nc3cccc(Cl)c3)n2)ccn1 | 5.66

* * *

Here the recorded cell viability is given for each entry.
test system: P12-Ichikawa; test: cell viability relative to DMSO control; higher = less cytotoxic; settings: RPMI 5 mM glucose + 10% dialyzed FBS; 48 h; 0.00234 µM
Measure: cell viability

1) C[C@@H]1CC[C@@]2(OC1)OC1CC3C4CC=C5CC(O)CCC5(C)C4CCC3(C)C1[C@@H]2C (some centres undefined) | 96.3%
2) Cc1cn(CCN2CCN(c3ccccc3-c3cc(C#N)cc(C(=O)NCCCN4CCCC4)c3)CC2)c2ccccc12 | 119%
3) CN[S+](=O)([O-])CCc1ccc2[nH]cc(C3CCN(C)CC3)c2c1 | 94.2%
4) COC(=O)[C@@H](N)CCCNC(=N)N[N+](=O)[O-] | 93%
5) COc1cc([C@@H]2c3cc4c(cc3[C@@H](O[C@@H]3O[C@@H]5CO[C@@H](c6cccs6)O[C@H]5[C@H](O)[C@H]3O)[C@H]3COC(=O)[C@H]23)OCO4)cc(OC)c1O | 91.5%
6) NC(=O)Nc1cc(-c2ccc(CN3CCOCC3)cc2)sc1C(N)=O | 114%
7) C[C@@H]1C[C@H]2[C@@H]3CC\C4=C\C(=O)\C=C/[C@]4(C)[C@@]3(Cl)[C@@H](O)C[C@]2(C)[C@@]1(OC(=O)C5=CC=CO5)C(=O)CCl | 84.6%
8) CC(=O)O[C@@]12CO[C@@H]1C[C@H](O)[C@]3(C)[C@@H]2[C@H](OC(=O)C4=CC=CC=C4)[C@]5(O)C[C@H](OC(=O)C(O)[C@@H](NC(=O)OC(C)(C)C)C6=CC=CC=C6)C(=C(/[C@@H](O)C3=O)C5(C)C)/C (some centres undefined) | 46.4%
9) O=[N+]([O-])c1cnc(Sc2nnc(O)n2-c2ccc3c(c2)OCCO3)s1 | 78.6%
10) Cc1ccc(-c2ncn(-c3ccc(Nc4nccc(-c5cccc(N6CCOCC6)c5)n4)cc3)n2)cn1 | 87.5%
11) OC(COC1=C2C(=O)\C=C(/OC2=CC=C1)C([O-])=O)COC3=C4C(=O)\C=C(/OC4=CC=C3)C([O-])=O | 78.4%
12) CO[C@H]1C[C@@H]2CC[C@@H](C)[C@@](O)(O2)C(=O)C(=O)N2CCCC[C@H]2C(=O)O[C@H]([C@H](C)C[C@@H]2CC[C@@H](OCCO)[C@H](OC)C2)CC(=O)[C@H](C)/C=C(/C)[C@@H](O)[C@@H](OC)C(=O)[C@H](C)C[C@H](C)\C=C/C=C\C=C/1C | 99.1%
13) N\C1=N\C2=C(N=C[N]2COC(CO)CO)C(=O)N1 | 98.3%
14) COC1=CC=C(C=C1)C2CC(=N/N2C3=CC=C(C=C3)[S+](N)([O-])=O)\C4=CC=CC=C4 (centres undefined) | 96.2%
